Test system: A549/ATCC NSCLC
Assay: NCI-60 one-dose screen, 48 h (100 = growth as untreated, 0 = no growth, -100 = all killed)
Details: 10 µM
Experimental: Growth inhibition of the A549/ATCC human Non-Small Cell Lung tumor cell line is measured as a screen for anti-cancer activity. Cells are grown in 96 well plates and exposed to the test compound for 48 hours. Compounds are tested at a single concentration, which is 10^-5 M for most compounds. The reported endpoint is percent growth (GI% or GIPRCNT), where numbers from 0 - 100% represent growth inhibition, and numbers from -100% - 0 represent cell death. […]
Compounds without any hit were thinned out: in the full panel of roughly 83,000, 20% have a hit.
quantityName: growth (%)
State just the number; it will be interpreted in %.

// solved cases for growth follow
• COc1cccc2nc(Nc3cccc(NC(=O)c4ccc(CN5CCCN(C)CC5)c(C(F)(F)F)c4)c3)ccc12 = -75.6
• CCOP(=O)(OCC)O[C@H]1CCC(=O)[C@@H]2[C@H]1[C@H]1C[C@@H]3[C@@]4(C)CCCC(C)(C(=O)OC)[C@@H]4CC[C@@]23C=C1C(C)C (stereo partly drawn) = 49.7
• CCOP(=O)(OCC)O[C@H]1CC[C@]2(C)[C@H]3CC[C@@H]4[C@@H]([C@](C)(O)CCC=C(C)C)CC[C@@]4(C)[C@]3(C)CC[C@H]2C1(C)C = 22.1
• O=C(CSc1nnc(-c2ccc3nc(-c4ccc(Cl)cc4)[nH]c3c2)o1)Nc1ccc(Br)cc1 = -54.9
• COc1ccc(NC(=O)Nc2ccc(OCC(=O)N=Nc3c(O)[nH]c4ccc([N+](=O)[O-])cc34)cc2)cc1 = 99

Exercise: Quote A549/ATCC NSCLC growth for entry COc1cc2c3c(n(CCCNC(C)C)c(=O)c2cc1OC)-c1nc2c(cc1C3=O)OCO2 .
Solution: -62.8

Exercise: Quote A549/ATCC NSCLC growth for entry CC(C)C(=O)Nc1ccc(C(=O)NC(=S)Nc2ccc(C(=O)O)cc2)cc1 .
Solution: 110

Exercise: Quote A549/ATCC NSCLC growth for entry CC(C)(C)c1ccc(NCc2cn(-c3ccc(C(=O)O)cc3)nc2-c2ccc(C#N)cc2)cc1 .
Solution: 24.3

Exercise: Quote A549/ATCC NSCLC growth for entry O=C1NC(=NC2CCCCCC2)N/C1=C\c1ccc2ncoc2c1 .
Solution: 17

Exercise: Quote A549/ATCC NSCLC growth for entry Cc1cc(=O)oc2cc(OCCCCOc3ccc(/C=C/C(=O)Nc4ccc(F)c(Cl)c4)cc3)ccc12 .
Solution: 79.7

Exercise: Quote A549/ATCC NSCLC growth for entry CN1CCN(c2ccc(Nc3nc(NCCCNC(=O)C4CCCCC4)c4sccc4n3)cc2)CC1 .
Solution: 59.5

Exercise: Quote A549/ATCC NSCLC growth for entry O=c1cc(-c2ccccc2)oc2cc(OCCCNCc3ccccc3)cc(O)c12 .
Solution: 26.2

Exercise: Quote A549/ATCC NSCLC growth for entry Cc1cc(C)nc(NS(=O)(=O)c2ccc(N/C(N)=N/c3nccc(-c4cccs4)n3)cc2)n1 .
Solution: 99.7

Exercise: Quote A549/ATCC NSCLC growth for entry CC1CC(c2ccc(N(C)C)cc2)=NN1c1nc(O)c(C2=c3cc(Br)ccc3=NC2=O)s1 (stereo not drawn) .
Solution: 72.6

Exercise: Quote A549/ATCC NSCLC growth for entry Cc1ccc(-c2ccc(SCC(=O)Nc3ccc(Cl)c(C(F)(F)F)c3)nn2)cc1 .
Solution: 40.4

Exercise: Quote A549/ATCC NSCLC growth for entry NC1=NC(c2ccccc2Cl)N=C(Nc2nn[nH]n2)N1 (stereo not drawn) .
Solution: 103

Exercise: Quote A549/ATCC NSCLC growth for entry COc1ccc(OC)c(/C=N/NC(=O)c2ccc3nc(-c4ccc(Cl)cc4)[nH]c3c2)c1 .
Solution: 91.2

Exercise: Quote A549/ATCC NSCLC growth for entry N#Cc1c(-c2ccc(F)cc2)nc(SCc2ccc([N+](=O)[O-])cc2)nc1N1CCOCC1 .
Solution: 63.4
